- assay method text: The drug is tested on WLS-240 corresponding to human gut metagenome with ENA study accession number: PRJEB37062 and ENA sample accession number: ERS12561773 for biotransformation under anaerobic condition. The drug concentrations were measured over 9 timepoints collected between 0 and 24 hours of incubation by liquid-chromatography-coupled mass spectrometry (LC–MS); note: call rule not given here
- run parameters: 2 µM
test readout: Bacterial Biotransformation

Consider the reported Bacterial Biotransformation for these compounds:
• CC(C)(C#N)c1cc(Cn2cncn2)cc(C(C)(C)C#N)c1 [ANASTROZOLE] = Compound metabolized
• CC[C@@H](CO)NC(=O)[C@@H]1C=C2c3cccc4c3c(cn4C)C[C@H]2N(C)C1.O=C(O)/C=C\C(=O)O [METHYSERGIDE MALEATE] = Compound NOT metabolized
• CCOC(=O)[C@H](CCc1ccccc1)N[C@@H](C)C(=O)N1[C@H](C(=O)O)C[C@H]2CCCC[C@@H]21 [TRANDOLAPRIL] = Compound metabolized
• CCN(CC)C(C)CN1c2ccccc2Sc2ccccc21 (stereo not drawn) [ETHOPROPAZINE] = Compound metabolized
• CS(=O)(=O)O.OC(CCN1CCCCC1)(c1ccccc1)c1ccccc1 [PRIDINOL METHANESULFONATE] = Compound metabolized

Data point: CN1CCC(=C2c3ccccc3CCc3cccnc32)CC1.O=C(O)/C=C\C(=O)O.O=C(O)/C=C\C(=O)O [AZATADINE MALEATE] ; Bacterial Biotransformation = Compound NOT metabolized

Data point: CCOc1ccc(NC(C)=O)cc1 [PHENACETIN] ; Bacterial Biotransformation = Compound NOT metabolized

Data point: C=CCc1ccccc1OCC(O)CNC(C)C (stereo not drawn) [ALPRENOLOL] ; Bacterial Biotransformation = Compound metabolized
